Target: E3 ubiquitin-protein ligase XIAP (Homo sapiens) (UniProt P98170)
Sequence (P98170 whole entry, looked up): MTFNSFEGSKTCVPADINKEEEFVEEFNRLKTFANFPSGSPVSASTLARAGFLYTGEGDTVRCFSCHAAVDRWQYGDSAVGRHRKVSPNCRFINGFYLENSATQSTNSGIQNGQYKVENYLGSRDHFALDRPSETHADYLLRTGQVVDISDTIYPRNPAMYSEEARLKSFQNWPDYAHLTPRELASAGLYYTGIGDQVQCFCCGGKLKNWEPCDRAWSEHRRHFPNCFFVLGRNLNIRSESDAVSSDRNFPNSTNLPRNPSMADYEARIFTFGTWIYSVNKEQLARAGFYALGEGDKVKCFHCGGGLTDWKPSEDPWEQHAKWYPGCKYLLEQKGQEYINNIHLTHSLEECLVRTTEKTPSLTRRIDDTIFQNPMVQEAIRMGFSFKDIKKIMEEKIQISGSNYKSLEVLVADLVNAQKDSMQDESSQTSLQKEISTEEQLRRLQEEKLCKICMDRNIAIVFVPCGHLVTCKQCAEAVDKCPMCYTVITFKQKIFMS
Assay: XIAP binders, primary screen, biophysical, small-molecule microarray, fluorescence 635 nm (AID 1181);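 note: score merges 667 nm emission and signal to noise over triplicate slides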
Settings: small-molecule microarray binding, higher = more signal
Reported composite z-score values are given for each entry in this list.
Give the value as a plain number.

input: # composite z-score lookup, item "CCCC[C@H]1OB(O)C[C@H]2C1=C(C)C[C@H]1C(=O)C=CC(=O)[C@H]12"
output: -0.188

input: # composite z-score lookup, item "COc1ccc(CCNC(=O)[C@@]2(Sc3ccc(C)cc3)CC(=O)N(Cc3cc(C(F)(F)F)cc(C(F)(F)F)c3)[C@@H]2c2ccc(CO)cc2)cc1"
output: 0.536

input: # composite z-score lookup, item "Cc1ccc(S[C@]2(C(=O)NCCCN(C)C)CC(=O)N(Cc3ccccc3Cl)[C@@H]2c2ccc(CO)cc2I)cc1"
output: -0.133

input: # composite z-score lookup, item "CCOC(=O)C1=C[C@@H](C(C)(C)C)N(S(=O)(=O)c2ccc(C)cc2)[C@H]1c1ccccc1Cl"
output: 0.227

input: # composite z-score lookup, item "COCCOC(=O)N1C(=O)[C@@]2(c3cc(C#CCC(C(=O)OC)C(=O)OC)ccc31)[C@H](C(N)=O)[C@H]1C(=O)O[C@H](c3ccccc3)[C@H](c3ccccc3)N1[C@@H]2c1ccc(OCCO)cc1"
output: 0.0251

input: # composite z-score lookup, item "COC(=O)[C@@]1(Cc2ccccc2)[C@H]2c3cc(C(=O)N4CCCC4)n(Cc4ccc(C(F)(F)F)nc4)c3C[C@H]2CN1C(=O)c1ccccc1"
output: 0.0558

input: # composite z-score lookup, item "C=C(COC)/C(=C/C[C@H](OC(=O)c1ccncc1)c1ccc(OCCO)cc1)c1cc(C(=O)OC)ccc1OC"
output: 0.177
